Quick reference for Kd among some compounds
target: PTmAb0005; assay: BIAcore affinity to PTmAb0005; type: binding; conditions: read-out: PTmAb BIAcore KD^Rel (μM) PTmAb0005
Positions of bridges follow the written chain, without caps; N, C: chain ends. Residues, ends and D or L forms follow the SMILES beside them.

Example results:
CC[C@H](C)[C@H](NC(=O)CNC(=O)[C@@H]1CCCN1C(=O)[C@H](CCC(N)=O)NC(=O)[C@H](Cc1c[nH]cn1)NC(=O)[C@@H]1CCCN1C(=O)[C@@H](NC(=O)[C@H](CC(=O)O)NC(=O)[C@H](CO)NC(=O)[C@H](CCC(N)=O)NC(=O)[C@H](CS)NC(=O)[C@@H](N)CS)C(C)C)C(=O)N[C@@H](CC(N)=O)C(=O)N[C@@H](CC(=O)O)C(=O)N[C@@H](CC(C)C)C(=O)N[C@@H](Cc1c[nH]cn1)C(=O)N[C@H](C(=O)O)C(C)C [IgEC73] (H-CCQSDVPHQPGINDLHV-OH) ... > 600 µM
CSCC[C@@H]1NC(=O)[C@H](Cc2ccccc2)NC(=O)[C@@H](N)CSSC[C@@H](C(=O)N2CCC[C@H]2C(=O)N[C@@H](CCCNC(=N)N)C(=O)N[C@@H](CCC(=O)O)C(=O)O)NC(=O)[C@H](CC(C)C)NC(=O)[C@H](CCC(=O)O)NC(=O)[C@H](CC(C)C)NC(=O)[C@H](CC(=O)O)NC(=O)[C@H](C)NC(=O)[C@H](CC(C)C)NC(=O)[C@H](CCC(N)=O)NC(=O)[C@H](CCCCN)NC(=O)[C@H](CC(N)=O)NC1=O [IgEC67] (H-CFMNKQLADLELCPRE-OH; disulfide 1-13) ... 0.1 µM
CC[C@H](C)[C@H](NC(=O)[C@@H]1CCCN1C(=O)[C@H](CC(C)C)NC(=O)CNC(=O)[C@H](CCCNC(=N)N)NC(=O)[C@H](CC(N)=O)NC(=O)[C@@H]1CCCN1C(=O)[C@H](CC(=O)O)NC(=O)[C@H](C)NC(=O)[C@@H]1CCCN1C(=O)[C@H](CO)NC(=O)[C@H](CC(=O)O)NC(=O)[C@H](CO)NC(=O)[C@H](CCSC)NC(=O)[C@H](CS)NC(=O)[C@@H](N)CS)C(=O)N[C@@H](Cc1c[nH]c2ccccc12)C(=O)O [IgEC66] (H-CCMSDSPADPNRGLPIW-OH) ... > 600 µM

Now look at this entry.
[Q] For PTmAb0005, give the measured Kd of the entry CC[C@H](C)[C@@H]1NC(=O)[C@H](CCSC)NC(=O)[C@H](CCC(=O)O)NC(=O)[C@H](CO)NC(=O)CNC(=O)CNC(=O)[C@H](CC(C)C)NC(=O)[C@H](Cc2c[nH]c3ccccc23)NC(=O)[C@H](C(C)C)NC(=O)[C@H](CCC(=O)O)NC(=O)[C@H](CCCNC(=N)N)NC(=O)[C@@H](NC(=O)[C@@H](N)CO)CSSC[C@@H](C(=O)N[C@@H](CCC(=O)O)C(=O)O)NC(=O)[C@H](CC(=O)O)NC(=O)[C@H](CCSC)NC1=O [EEC39/50/129] (H-SCREVWLGGSEMIMDCE-OH; disulfide 2-16)
[A] > 1000 µM

====

Quick reference for Kd among some sequences
Molecular target: PTmAb0005
Assay: BIAcore affinity to PTmAb0005
Format: binding
Conditions: read-out: PTmAb BIAcore KD^Rel (μM) PTmAb0005
Source text: This involved a DNA sub-cloning transfer from the major coat protein (gVIIIp) filamentous phage display vector to a lower copy number minor phage coat protein (gIIIp) display vector with a random PCR step. […] Included in the tables are ranking orders and also BIAcore affinities where available. Thus indicating the importance of correct presentation of the peptides of the present invention to adopt a shape which closely resembles the native target in the context of the whole IgE molecule. [drawing]
No end group written: not given here.
Record the value in µM, omitting the unit from your answer.

GAMTAGQLSDLP [ESB25] ... 60
KAGEQAMDMELR [ESB8] ... 257

[Q] For the sequence VAGGQVVDRELK [ESB10/38] , give its reported Kd.
[A] 139

====

system: PTmAb0011; experiment: Phage display ranking of peptide ligands for PTmAb0011; format: binding, mouse; settings: primary phage display biopannings (Table 7)
No end group written: not given here.
Quick reference for Rank (ECL) PTmAb0011 among some sequences
Answer using only a numeral; do not append any unit.

DCLSKGQMADLC [EED147/173] ... 281
SCQGREVRRECW [EED183] ... 596
DALDERAWRARA [EEB33] ... 15
GCQVGELVWCRE [EED134] ... 14
RCDQQLPRDSYTFCMMS [EEC115/3/48] ... 438
VCDECVSRELAL [EED35/153/164] ... 118
FCPEPICSPPLSRMTLS [EEC147] ... 883
VCPPGWKNLGCN [EED51] ... 0
ECPRWPLMGDGC [EED139] ... 26
WCLEPECAPGLL [EED38] ... 330

[Q] For PTmAb0011, give the measured Rank (ECL) PTmAb0011 of the entry GCPTWPRVGDHC [EED36]
[A] 52

[Q] For PTmAb0011, give the measured Rank (ECL) PTmAb0011 of the entry VCDECVSRELAL [EED35/53/164]
[A] 330

[Q] For PTmAb0011, give the measured Rank (ECL) PTmAb0011 of the entry DCEEPMCSPVLLQKLKP [EEC17/47/25]
[A] 147

[Q] For PTmAb0011, give the measured Rank (ECL) PTmAb0011 of the entry RCQSARVVPECW [EED131/138/102]
[A] 32

====

Quick reference for Kd among some sequences
molecular target: PTmAb0011; experiment: BIAcore affinity to PTmAb0011; assay type: binding, mouse; settings: read-out: PTmAb BIAcore KD^Rel (μM) PTmAb0011
No end group written: not given here.
Record the value in µM, omitting the unit from your answer.

DALDERAWRARA [EEB33] ... 117

Now look at this entry.
[Q] For the sequence DCDWINPPDPPHFWKDT [EEC2/23/44/132] , give its reported Kd.
[A] 7

====

test system: PTmAb0005; test: Phage display ranking of peptide ligands for PTmAb0005; format: binding; settings: IgEC67-8 mutants (Table 9)
Classify: TRUE when Rel. Rank A is strictly less than 1; FALSE when Rel. Rank A is not.

Example entries begin here.
ADGAGCFINKQMADWELCPREAAEA [Peptide 5-10, IgEC67-8 mutant clone] ... FALSE
ADGAGCFINKQMADSELCPREPAEA [Peptide 5-16, IgEC67-8 mutant clone] ... FALSE

[Q] Decide: Rel. Rank A of ADGAGCFINKQMADLELCTREAAEA [Peptide 3-11, IgEC67-8 mutant clone] strictly below 1?
[A] FALSE

[Q] Decide: Rel. Rank A of ADGAGCFINKQMADMELCPREAAEA [Peptide 2-3, IgEC67-8 mutant clone] strictly below 1?
[A] FALSE

[Q] Decide: Rel. Rank A of ADGAECFINKQMADRELCAREVAEA [Peptide 2-12, IgEC67-8 mutant clone] strictly below 1?
[A] FALSE

[Q] Decide: Rel. Rank A of ADGAGCFINKQMADWELCPREGAEA [Peptide 2-15, IgEC67-8 mutant clone] strictly below 1?
[A] FALSE

[Q] Decide: Rel. Rank A of ADGAGCFRNKQMADLELCPREAAEA [Peptide 1-6, IgEC67-8 mutant clone] strictly below 1?
[A] TRUE

[Q] Decide: Rel. Rank A of ADGAGCFIEKQMADMELCQARAAEA [Peptide 1-8, IgEC67-8 mutant clone] strictly below 1?
[A] FALSE

====

biological target: PTmAb0011; assay: BIAcore affinity to PTmAb0011; type: binding, mouse; settings: read-out: PTmAb BIAcore KD^Rel (μM) PTmAb0011
Positions of bridges follow the written chain, without caps; N, C: chain ends. Residues, ends and D or L forms follow the SMILES beside them.
recorded metric: Kd

[Q] For the compound CSCC[C@H](NC(=O)[C@H](CCC(N)=O)NC(=O)[C@H](CC(C)C)NC(=O)CNC(=O)[C@H](CCC(=O)O)NC(=O)[C@H](CC(C)C)NC(=O)[C@@H](NC(=O)[C@H](C)NC(=O)[C@H](CC(N)=O)NC(=O)[C@H](CS)NC(=O)[C@@H](N)CCC(N)=O)C(C)C)C(=O)N[C@H](C(=O)N[C@@H](CC(=O)O)C(=O)N[C@@H](Cc1c[nH]cn1)C(=O)N[C@@H](CS)C(=O)N[C@@H](Cc1c[nH]c2ccccc12)C(=O)N[C@@H](CC(N)=O)C(=O)O)C(C)C [IgEC26] (H-QCNAVLEGLQMVDHCWN-OH) , give its reported Kd.
[A] 53.4 µM

[Q] For the compound CC[C@H](C)[C@@H]1NC(=O)[C@H](Cc2ccccc2)NC(=O)[C@@H](N)CSSC[C@@H](C(=O)N2CCC[C@H]2C(=O)N[C@@H](CCCNC(=N)N)C(=O)N[C@@H](CCC(=O)O)C(=O)O)NC(=O)[C@H](CC(C)C)NC(=O)[C@H](CCC(=O)O)NC(=O)[C@H](CC(C)C)NC(=O)[C@H](CC(=O)O)NC(=O)[C@H](C)NC(=O)[C@H](CCSC)NC(=O)[C@H](CCC(N)=O)NC(=O)[C@H](CCCCN)NC(=O)[C@H](CC(N)=O)NC1=O [IgEC67-8] (H-CFINKQMADLELCPRE-OH; disulfide 1-13) , give its reported Kd.
[A] 0.066 µM

[Q] For the compound CC[C@H](C)[C@H](NC(=O)[C@H](CCCCN)NC(=O)[C@H](CC(C)C)NC(=O)[C@H](CS)NC(=O)[C@@H](N)CCC(=O)O)C(=O)N[C@@H](CCC(=O)O)C(=O)N[C@@H](CCC(N)=O)C(=O)N[C@@H](CCC(N)=O)C(=O)N[C@@H](CS)C(=O)N[C@@H](C)C(=O)N[C@@H](CC(=O)O)C(=O)N[C@H](C(=O)N[C@H](C(=O)N[C@@H](CCC(=O)O)C(=O)N[C@H](C(=O)N1CCC[C@H]1C(=O)N[C@@H](CCCNC(=N)N)C(=O)O)[C@@H](C)CC)C(C)C)[C@@H](C)CC [IgEC42] (H-ECLKIEQQCADIVEIPR-OH) , give its reported Kd.
[A] > 500 µM

[Q] For the compound CC[C@H](C)[C@H](NC(=O)[C@@H]1CCCN1C(=O)[C@H](CC(C)C)NC(=O)CNC(=O)[C@H](CCCNC(=N)N)NC(=O)[C@H](CC(N)=O)NC(=O)[C@@H]1CCCN1C(=O)[C@H](CC(=O)O)NC(=O)[C@H](C)NC(=O)[C@@H]1CCCN1C(=O)[C@H](CO)NC(=O)[C@H](CC(=O)O)NC(=O)[C@H](CO)NC(=O)[C@H](CCSC)NC(=O)[C@H](CS)NC(=O)[C@@H](N)CS)C(=O)N[C@@H](Cc1c[nH]c2ccccc12)C(=O)O [IgEC66] (H-CCMSDSPADPNRGLPIW-OH) , give its reported Kd.
[A] > 600 µM
